# Target entity: the molecule itself
# Measurement notes: steric trap, DM micelles
Value kind: Kd

Notebook: Glycophorin A TM domain (SNGpATM) TMD (protein) GERVQLAHHFSEPEITLIIFGVMAGVIGTILLISYGIRRLIKKSPSDVKPLPSPDTDVPLSSVEIENPETSDQ , Kd read as 170 nM
